Known Kb of a selection of compounds
Biological target: 5-hydroxytryptamine receptor 6 (Homo sapiens, UniProt P50406)
Sequence (P50406 whole entry): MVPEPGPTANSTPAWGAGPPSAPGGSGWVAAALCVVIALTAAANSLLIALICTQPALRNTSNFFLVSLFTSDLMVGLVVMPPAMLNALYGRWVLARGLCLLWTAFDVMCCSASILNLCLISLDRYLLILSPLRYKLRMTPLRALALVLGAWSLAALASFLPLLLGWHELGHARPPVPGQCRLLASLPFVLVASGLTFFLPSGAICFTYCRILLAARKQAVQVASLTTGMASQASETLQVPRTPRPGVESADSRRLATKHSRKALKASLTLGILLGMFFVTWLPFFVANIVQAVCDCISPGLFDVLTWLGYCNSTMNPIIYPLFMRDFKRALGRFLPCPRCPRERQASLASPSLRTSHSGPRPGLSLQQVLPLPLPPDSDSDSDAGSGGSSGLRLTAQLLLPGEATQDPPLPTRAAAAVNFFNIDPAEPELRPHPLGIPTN
Experiment: Antagonist activity at human recombinant 5-HT6 receptor expressed in CHO-K1 cells assessed as inhibition of serotonin-induced response treated 15 to 30 mins before agonist challenge by luminescence analysis
Assay type: cell-based
State the answer as a number, implicitly in nM.

Sample answers from the record:
COMPOUND_STRING	MEASURED_ON	ATTRIBUTE_MEASURED	QUANTITATIVE_READOUT
O=S(=O)(NCCCCN1CCC(c2noc3cc(F)ccc23)CC1)c1cc2ccccc2s1	5-hydroxytryptamine receptor 6 (Homo sapiens, UniProt P50406)	Kb	9.9
O=S(=O)(NCCCCN1CCN(c2noc3ccccc23)CC1)c1ccc2ccccc2c1	5-hydroxytryptamine receptor 6 (Homo sapiens, UniProt P50406)	Kb	11

Query compound follows.
Task: Would you mind telling me what Kb value was observed for O=S(=O)(NCCCCN1CCN(c2nsc3ccccc23)CC1)c1ccc2ccccc2c1 ?
Result: 7.6

* * *

Target: hERG (KCNH2) potassium channel (Homo sapiens)
Experiment: in vitro
Conditions: CHO cells expressing human cloned ERG
Documented inhibition at 1 µM across a set of compounds
The answer is to be given in %; state only the numeric part.

COMPOUND_STRING	QUANTITATIVE_READOUT
O=S(=O)(NCCCCN1CCN(c2nsc3ccccc23)CC1)c1ccc2cc(Cl)ccc2c1	12

Task: // inhibition at 1 µM lookup, key: O=S(=O)(NCCCCN1CCN(c2noc3ccccc23)CC1)c1ccc(OC(F)(F)F)cc1
Result: 24

Task: For the compound O=S(=O)(NCCN1CCC(c2noc3cc(F)ccc23)CC1)c1cccc2ccccc12 , what inhibition at 1 µM is on record?
Result: 0

Task: Would you mind telling me what inhibition at 1 µM value was observed for O=S(=O)(NCCCN1CCC(c2noc3cc(F)ccc23)CC1)c1cccc2ccccc12 ?
Result: 27

Task: Look at this compound and give its reported inhibition at 1 µM. O=S(=O)(NCCCCN1CCN(c2noc3ccccc23)CC1)c1ccc(F)c(Cl)c1
Result: 45

Task: Given the entry Cc1c(S(=O)(=O)NCCCCN2CCC(c3noc4cc(F)ccc34)CC2)sc2ccc(F)cc12 , report its measured inhibition at 1 µM.
Result: 14

Task: # lookup: inhibition at 1 µM of Cc1cccc(S(=O)(=O)NCCCCN2CCN(c3noc4ccccc34)CC2)c1
Result: 27

Task: # get_value(readout='inhibition at 1 µM', item= O=S(=O)(NCCCN1CCN(c2noc3ccccc23)CC1)c1cccc2scnc12 )
Result: 17

Task: Look up inhibition at 1 µM for this compound: O=S(=O)(NCCCCN1CCN(c2nsc3ccccc23)CC1)c1ccc(OC(F)(F)F)cc1
Result: 20

* * *

Biological target: Muscarinic acetylcholine receptor M3 (Homo sapiens, UniProt P20309)
Sequence (P20309 whole entry): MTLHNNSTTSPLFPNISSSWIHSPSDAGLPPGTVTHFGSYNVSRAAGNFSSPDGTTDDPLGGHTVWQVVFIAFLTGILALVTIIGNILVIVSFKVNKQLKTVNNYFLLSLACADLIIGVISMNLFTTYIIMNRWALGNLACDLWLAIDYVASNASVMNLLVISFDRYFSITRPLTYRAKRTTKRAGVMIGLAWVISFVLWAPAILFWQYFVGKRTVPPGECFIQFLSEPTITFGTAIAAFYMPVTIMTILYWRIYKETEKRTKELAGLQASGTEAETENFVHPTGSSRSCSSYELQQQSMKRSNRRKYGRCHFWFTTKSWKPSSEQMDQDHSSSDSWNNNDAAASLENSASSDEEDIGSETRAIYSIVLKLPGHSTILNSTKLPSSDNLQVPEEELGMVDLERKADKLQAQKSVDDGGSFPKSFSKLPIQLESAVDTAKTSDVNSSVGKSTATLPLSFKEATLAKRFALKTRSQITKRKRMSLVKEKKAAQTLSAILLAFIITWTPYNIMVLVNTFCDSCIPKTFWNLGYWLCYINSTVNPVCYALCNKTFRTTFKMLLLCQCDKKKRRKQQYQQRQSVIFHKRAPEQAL
ATTRIBUTE_MEASURED: Ki

Task: Tell me reported Ki for O=S(=O)(NCCCCN1CCC(c2noc3cc(F)ccc23)CC1)c1cc2ccccc2s1 , tested with Muscarinic acetylcholine receptor M3 (Homo sapiens, UniProt P20309).
Result: > 1 µM

* * *

Target: 5-hydroxytryptamine receptor 2A (Homo sapiens, UniProt P28223)
Sequence (P28223 whole entry): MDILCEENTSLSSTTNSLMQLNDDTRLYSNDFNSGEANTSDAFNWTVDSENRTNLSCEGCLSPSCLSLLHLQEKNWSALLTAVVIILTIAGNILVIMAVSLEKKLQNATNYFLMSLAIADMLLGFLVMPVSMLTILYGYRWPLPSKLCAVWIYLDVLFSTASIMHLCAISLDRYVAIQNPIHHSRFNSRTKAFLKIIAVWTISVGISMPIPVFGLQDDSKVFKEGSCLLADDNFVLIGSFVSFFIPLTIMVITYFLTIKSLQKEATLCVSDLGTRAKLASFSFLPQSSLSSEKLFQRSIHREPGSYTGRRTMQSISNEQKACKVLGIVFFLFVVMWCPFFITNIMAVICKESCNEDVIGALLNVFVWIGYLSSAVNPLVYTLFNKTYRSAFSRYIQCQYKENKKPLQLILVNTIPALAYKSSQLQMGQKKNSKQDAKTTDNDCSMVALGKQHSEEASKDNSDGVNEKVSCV
Experiment: biochemical
Assay type: cell-based, CHO-K1
ATTRIBUTE_MEASURED: Ki (nM)
Form entry: value (nM) — number only.

Consider the reported Ki for these compounds:
COMPOUND_STRING	Ki, nM
O=S(=O)(NCCCN1CCC(c2noc3cc(F)ccc23)CC1)c1cc2ccc(Cl)cc2s1	2.6
O=S(=O)(NCCN1CCN(c2nsc3ccccc23)CC1)c1ccc2ccccc2c1	0.9
O=S(=O)(NCCCCN1CCC(c2noc3cc(F)ccc23)CC1)c1csc2ccccc12	5.7
Cc1c(S(=O)(=O)NCCCN2CCC(c3noc4cc(F)ccc34)CC2)sc2ccc(F)cc12	2.3
O=S(=O)(NCCCCN1CCN(c2noc3ccccc23)CC1)c1ccc(Cl)c(Cl)c1	10
O=S(=O)(NCCCCN1CCN(c2noc3ccccc23)CC1)c1ccc(F)c(Cl)c1	17
O=S(=O)(NCCCN1CCN(c2nsc3ccccc23)CC1)c1cccs1	9.1
O=S(=O)(NCCCN1CCC(c2noc3cc(F)ccc23)CC1)c1ccc(OC(F)(F)F)cc1	3.8
O=S(=O)(NCCCCN1CCC(c2noc3cc(F)ccc23)CC1)c1cccc2ccccc12	0.6
O=S(=O)(NCCCCN1CCN(c2noc3ccccc23)CC1)c1cc2ccccc2s1	190

Task: What value of Ki on 5-hydroxytryptamine receptor 2A (Homo sapiens, UniProt P28223) does O=S(=O)(NCCCCN1CCN(c2noc3ccccc23)CC1)c1cnc2ccccn12 have?
Result: 13

Task: Please provide the recorded Ki for Cc1cccc(S(=O)(=O)NCCN2CCN(c3nsc4ccccc34)CC2)c1 , tested on 5-hydroxytryptamine receptor 2A (Homo sapiens, UniProt P28223).
Result: 8.8

Task: Requested read-out Ki, target or system 5-hydroxytryptamine receptor 2A (Homo sapiens, UniProt P28223), entry O=S(=O)(NCCCCN1CCN(c2nsc3ccccc23)CC1)c1ccc2cc(Cl)ccc2c1
Result: 8.1

Task: Find the measured Ki: item O=S(=O)(NCCCN1CCN(c2noc3ccccc23)CC1)c1cc2ccc(Cl)cc2s1 , target or system 5-hydroxytryptamine receptor 2A (Homo sapiens, UniProt P28223).
Result: 63

Task: Lab request: please report Ki under test system 5-hydroxytryptamine receptor 2A (Homo sapiens, UniProt P28223) for O=S(=O)(NCCCN1CCC(c2noc3cc(F)ccc23)CC1)c1ccc(F)c(Cl)c1
Result: 1.5

Task: Please tell me: Ki of O=S(=O)(NCCCCN1CCC(c2noc3cc(F)ccc23)CC1)c1ccc2ccccc2c1 , system 5-hydroxytryptamine receptor 2A (Homo sapiens, UniProt P28223)?
Result: 1.7

* * *

Biological target: D(2) dopamine receptor (Homo sapiens, UniProt P14416)
Sequence (P14416 whole entry): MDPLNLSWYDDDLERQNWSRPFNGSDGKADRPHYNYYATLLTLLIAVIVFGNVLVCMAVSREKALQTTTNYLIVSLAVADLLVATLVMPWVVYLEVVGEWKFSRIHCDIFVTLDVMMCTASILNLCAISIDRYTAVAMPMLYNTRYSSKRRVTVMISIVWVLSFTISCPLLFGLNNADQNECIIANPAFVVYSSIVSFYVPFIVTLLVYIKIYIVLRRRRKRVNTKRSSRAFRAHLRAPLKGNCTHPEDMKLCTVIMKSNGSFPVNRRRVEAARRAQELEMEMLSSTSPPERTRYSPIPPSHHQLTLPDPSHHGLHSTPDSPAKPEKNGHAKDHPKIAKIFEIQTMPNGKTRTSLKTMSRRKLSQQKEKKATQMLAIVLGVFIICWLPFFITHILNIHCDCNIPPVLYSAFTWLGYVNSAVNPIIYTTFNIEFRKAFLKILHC
Experiment: biochemical
ATTRIBUTE_MEASURED: pKi
Kindly note that pKi refers to -log10 of the concentration in mol/L and answer with the value alone.

Task: Value lookup for pKi; key = O=S(=O)(NCCCCN1CCC(c2noc3cc(F)ccc23)CC1)c1cc2ccccc2s1
Result: 8.74

* * *

Target: 5-hydroxytryptamine receptor 2A (Homo sapiens)
Experiment: biochemical
ATTRIBUTE_MEASURED: pKi
Keep it numeric: pKi is minus log10 of the concentration in mol/L.

Task: Quick check: pKi of O=S(=O)(NCCCCN1CCC(c2noc3cc(F)ccc23)CC1)c1cc2ccccc2s1 ?
Result: 9.30

* * *

Molecular target: D(1A) dopamine receptor (Homo sapiens, UniProt P21728)
Sequence (P21728 whole entry): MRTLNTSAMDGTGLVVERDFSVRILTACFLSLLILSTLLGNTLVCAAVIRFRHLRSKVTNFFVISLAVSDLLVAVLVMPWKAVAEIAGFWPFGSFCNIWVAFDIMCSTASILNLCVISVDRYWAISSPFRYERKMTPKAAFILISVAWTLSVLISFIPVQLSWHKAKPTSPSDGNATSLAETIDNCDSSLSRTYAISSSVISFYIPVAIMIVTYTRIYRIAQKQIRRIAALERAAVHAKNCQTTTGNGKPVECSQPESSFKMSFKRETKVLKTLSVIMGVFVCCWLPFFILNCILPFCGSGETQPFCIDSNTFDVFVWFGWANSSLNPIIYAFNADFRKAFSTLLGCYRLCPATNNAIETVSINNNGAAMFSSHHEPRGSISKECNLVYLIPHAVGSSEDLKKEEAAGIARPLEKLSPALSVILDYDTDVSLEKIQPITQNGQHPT
ATTRIBUTE_MEASURED: Ki

Task: Form entry - test system: D(1A) dopamine receptor (Homo sapiens, UniProt P21728); read-out: Ki; compound: O=S(=O)(NCCCCN1CCC(c2noc3cc(F)ccc23)CC1)c1cc2ccccc2s1
Result: 3.3 nM

* * *

Molecular target: hERG (KCNH2) potassium channel (Homo sapiens, UniProt Q12809)
Sequence (Q12809 whole entry): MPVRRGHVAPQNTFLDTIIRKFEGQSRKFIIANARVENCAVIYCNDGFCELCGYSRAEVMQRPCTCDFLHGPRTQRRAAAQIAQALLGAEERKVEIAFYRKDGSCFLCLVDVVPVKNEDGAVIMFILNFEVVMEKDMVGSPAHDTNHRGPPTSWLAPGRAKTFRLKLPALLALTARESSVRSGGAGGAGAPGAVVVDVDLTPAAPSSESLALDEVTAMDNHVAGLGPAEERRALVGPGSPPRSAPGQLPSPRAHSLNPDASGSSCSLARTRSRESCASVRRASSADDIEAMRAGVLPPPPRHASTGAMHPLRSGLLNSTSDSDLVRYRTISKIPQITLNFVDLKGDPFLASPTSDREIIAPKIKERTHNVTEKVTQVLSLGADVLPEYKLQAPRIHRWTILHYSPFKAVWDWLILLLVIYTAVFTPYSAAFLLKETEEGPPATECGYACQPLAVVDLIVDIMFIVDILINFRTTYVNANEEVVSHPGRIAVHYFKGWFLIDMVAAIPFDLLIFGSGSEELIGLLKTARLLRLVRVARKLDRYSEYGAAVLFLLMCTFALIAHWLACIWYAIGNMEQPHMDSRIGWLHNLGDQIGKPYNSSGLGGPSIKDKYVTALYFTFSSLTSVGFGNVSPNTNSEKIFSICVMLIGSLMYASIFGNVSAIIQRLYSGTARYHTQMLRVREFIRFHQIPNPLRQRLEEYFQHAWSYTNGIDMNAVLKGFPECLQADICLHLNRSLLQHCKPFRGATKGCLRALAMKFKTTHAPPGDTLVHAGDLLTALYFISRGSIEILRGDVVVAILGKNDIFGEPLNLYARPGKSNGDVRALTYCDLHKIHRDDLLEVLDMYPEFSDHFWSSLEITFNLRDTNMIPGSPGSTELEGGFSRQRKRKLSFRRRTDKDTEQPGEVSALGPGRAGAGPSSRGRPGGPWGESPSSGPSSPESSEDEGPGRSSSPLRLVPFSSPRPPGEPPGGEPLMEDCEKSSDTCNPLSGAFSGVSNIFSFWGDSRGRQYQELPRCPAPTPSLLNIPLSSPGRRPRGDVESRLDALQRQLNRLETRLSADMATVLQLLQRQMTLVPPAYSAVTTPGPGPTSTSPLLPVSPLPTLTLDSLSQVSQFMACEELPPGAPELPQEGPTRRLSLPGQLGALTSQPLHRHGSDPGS
Assay: in vitro
Details: CHO cells expressing human cloned ERG
Outcome: True for inhibition at 1 µM of at least 20%; False for anything lower.

Worked examples, 10 molecules total:
COMPOUND_STRING	CLASS
O=S(=O)(NCCCCN1CCN(c2nsc3ccccc23)CC1)c1ccc(F)c(Cl)c1	True
O=S(=O)(NCCCN1CCN(c2noc3ccccc23)CC1)c1cccs1	False
Cc1cccc(S(=O)(=O)NCCCN2CCN(c3nsc4ccccc34)CC2)c1	False
O=S(=O)(NCCCN1CCC(c2noc3cc(F)ccc23)CC1)c1csc2ccccc12	True
O=S(=O)(NCCCCN1CCC(c2noc3cc(F)ccc23)CC1)c1csc2ccccc12	True
O=S(=O)(NCCCN1CCN(c2nsc3ccccc23)CC1)c1cccs1	True
O=S(=O)(NCCCCN1CCC(c2noc3cc(F)ccc23)CC1)c1cc2ccc(Cl)cc2s1	False
O=S(=O)(NCCCCN1CCC(c2noc3cc(F)ccc23)CC1)c1cccs1	True
O=S(=O)(NCCCCN1CCC(c2noc3cc(F)ccc23)CC1)c1ccc(F)c(Cl)c1	True
O=S(=O)(NCCCN1CCN(c2noc3ccccc23)CC1)c1cc2ccccc2s1	True

Task: I'd appreciate it if you could say whether O=S(=O)(NCCCN1CCC(c2noc3cc(F)ccc23)CC1)c1cc2ccccc2s1 has inhibition at 1 µM at least equal to 20%.
Result: True

Task: Decide: is the reported value of inhibition at 1 µM for O=S(=O)(NCCCCN1CCC(c2noc3cc(F)ccc23)CC1)c1cccc2ccccc12 equal to or greater than 20%?
Result: True

Task: Evaluate O=S(=O)(NCCCCN1CCN(c2nsc3ccccc23)CC1)c1ccc2ccccc2c1 : inhibition at 1 µM at minimum 20%?
Result: False

Task: Dear colleague, could you confirm whether O=S(=O)(NCCN1CCC(c2noc3cc(F)ccc23)CC1)c1ccc2ccccc2c1 has inhibition at 1 µM at or above 20%?
Result: True

* * *

# pKi per entry
Target: D(2) dopamine receptor (Homo sapiens, UniProt P14416)
Assay: biochemical
// scale note: pKi = -log10(conc_M); give the bare number

COMPOUND_STRING	MEASURED_ON	ATTRIBUTE_MEASURED	QUANTITATIVE_READOUT
O=S(=O)(NCCCCN1CCC(c2noc3cc(F)ccc23)CC1)c1ccc(OC(F)(F)F)cc1	D(2) dopamine receptor (Homo sapiens, UniProt P14416)	pKi	7.19

Task: // pKi lookup, key: O=S(=O)(NCCCCN1CCN(c2nsc3ccccc23)CC1)c1ccc2ccccc2c1
Result: 9.05

Task: Name the reported pKi value associated with the compound O=S(=O)(NCCCCN1CCN(c2nsc3ccccc23)CC1)c1cc2ccc(Cl)cc2s1
Result: 7.35

Task: Which pKi is listed for Cc1cccc(S(=O)(=O)NCCCCN2CCC(c3noc4cc(F)ccc34)CC2)c1 ?
Result: 7.77

Task: Any idea what its pKi is? The compound is Cc1c(S(=O)(=O)NCCCN2CCC(c3noc4cc(F)ccc34)CC2)sc2ccc(F)cc12
Result: 8.10

Task: Which pKi is reported for this compound? O=S(=O)(NCCCN1CCN(c2nsc3ccccc23)CC1)c1ccc2cc(Cl)ccc2c1
Result: 8.22

Task: What value of pKi has been recorded for this entry: O=S(=O)(NCCCCN1CCC(c2noc3cc(F)ccc23)CC1)c1ccc(F)c(Cl)c1
Result: 7.59

Data provenance is ChEMBL document CHEMBL3286108.
